- system_name: histone deacetylase (HDAC), HeLa nuclear extracts
- method_summary: In vitro assay for inhibition of histone deacetylase
- Type: biochemical
- Design: key: pIC50 = negative log of IC50
- measurement_setup: [3H]acetylated histone H4 peptide substrate, 30 min
value_type: Enzyme activity pIC50

Lab note: NS(=O)(=O)N1CCN(c2ncc(C(=O)NO)cn2)CC1 gave Enzyme activity pIC50 of 6.881

Lab note: O=C(NO)c1cnc(N2CCN(C(=O)c3ccc4ccccc4c3)CC2)nc1 gave Enzyme activity pIC50 of 7.104

Lab note: CN(C)S(=O)(=O)NCC1CCN(c2ncc(C(=O)NO)cn2)CC1 gave Enzyme activity pIC50 of 7.27

Lab note: O=C(NO)c1cnc(N2CCN(C(=O)C(c3ccccc3)c3ccccc3)CC2)nc1 gave Enzyme activity pIC50 of 7.096
